Property: IC50; scope: individual compounds
Tested on: Human immunodeficiency virus 1
Test: Concentration required to inhibit the viral (HIV-1 IIIB strain) cytopathic effect by 50% in MT-4 cells.
Assay type: functional, organism-based
Conditions: Human immunodeficiency virus 1, MT4

Cc1ncn(Nc2cccc(Cl)c2)c1-c1cccc(C(=O)O)c1; > 161 µM
Cc1cccc(NN2C(S)=NC(C)C2c2cccc(C(=O)O)c2)c1 (stereo not drawn); > 187 µM
Cc1nc(S)n(Nc2cccc3ccccc23)c1-c1ccccc1; 5.55 µM
Cc1nc(SCc2ccccc2)n(Nc2cccc(Cl)c2)c1-c1ccccc1; > 39.7 µM
SC1=NC2CCCCC2N1Nc1cccc(Cl)c1 (stereo not drawn); > 126 µM

Reported IC50 ( `Cc1nc(S)n(Nc2cccc(Cl)c2)c1-c1ccc(Cl)cc1` ) = > 40.8 µM

Per the record, CC(=O)c1ccc(C)cc1NC(C(N)=O)c1c(Cl)cccc1Cl (stereo not drawn) [LOVIRIDE] has IC50 of 0.014 µM

Reported IC50 of Cc1cc(C)cc(NN2C(S)=NC(C)C2c2ccccc2)c1 (stereo not drawn) : 1.03 µM

Form: compound = CC1N=C(S)N(Nc2cccc(Cl)c2)C1c1cccc(C(N)=O)c1 (stereo not drawn) ; IC50 = > 42.2 µM

Per the record, CC1N=C(S)N(Nc2cccc(Cl)c2)C1c1cccc(C(=O)O)c1 (stereo not drawn) has IC50 of > 120 µM

Record summary for Cc1ccc(NN2C(S)=NC(C)C2c2ccccc2)cc1C (stereo not drawn) : reported IC50 = 9.3 µM

Documented IC50 of `Cc1cccc(Nn2cnc(C)c2C)c1` : > 312 µM

# IC50 of COC(=O)C1C(C)N=C(S)N1Nc1cccc(Cl)c1 (stereo not drawn) = > 190 µM

Entry CC1N=C(S)N(Nc2cccc(F)c2)C1c1ccccc1 (stereo not drawn) — recorded IC50 = > 108 µM

// recorded IC50 for `Cc1nc(S)n(Nc2ccc(Cl)cc2)c1-c1ccccc1` : > 134 µM

Input CC1N=C(S)N(Nc2cccc(Cl)c2)C1C(=O)O (stereo not drawn) . Output IC50: > 266 µM

Memo: `COc1cccc(Nn2cnc(C)c2-c2ccccc2)c1` , reported IC50: > 34.4 µM

GET /value?item= COC(=O)C1N=C(S)N(Nc2cccc(Cl)c2)C1C (stereo not drawn) &field=IC50 returns > 48.8 µM
